Reference for the values: paper PMC7067379

# target_system: UniProt:P25774
# Sequence (P25774 115-331): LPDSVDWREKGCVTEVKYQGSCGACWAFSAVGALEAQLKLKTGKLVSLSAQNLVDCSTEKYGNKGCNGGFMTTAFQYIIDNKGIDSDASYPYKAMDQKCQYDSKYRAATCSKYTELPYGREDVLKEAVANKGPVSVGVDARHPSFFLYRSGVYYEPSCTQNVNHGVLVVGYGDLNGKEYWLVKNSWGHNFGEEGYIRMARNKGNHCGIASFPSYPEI
# assay_explanation: Cathepsin S enzyme inhibition
# Format: biochemical
# measurement_setup: SD lower than 15%; read-out: pKi CatS (converted)
Ki strictly under 200 nM means fulfilled; at 200 nM or over means not fulfilled.

For orientation, consider the following solved cases.
# molecule, target_system, assigned_label
records = [
    ("CC(C)C[C@H](NC(=O)c1ccnc2cc(Cl)ccc12)C(=O)NC1(C#N)CC1 [Compound 15]", "UniProt:P25774", "fulfilled"),
    ("Cn1nc(C(C)(C)C)cc1C(=O)N[C@@H](Cc1ccncc1)C(=O)NC1(C#N)CC1 [Compound 10]", "UniProt:P25774", "not fulfilled"),
    ("N#CC1(NC(=O)[C@H](Cc2c[nH]c3ccccc23)NC(=O)c2ccnc3cc(Cl)ccc23)CC1 [Compound 14]", "UniProt:P25774", "not fulfilled"),
    ("C[C@@H](O)[C@@H](C#N)NC(=O)[C@H](Cc1ccccc1)NC(=O)c1cc(C(C)(C)C)nn1C [Compound 65]", "UniProt:P25774", "not fulfilled"),
]

Query: Please check: Ki for CC(C)C[C@H](NC(=O)c1cc(C(C)(C)C)nn1C)C(=O)NC1(C#N)CC1 [Compound 11] , strictly under 200 nM or not?
Result: fulfilled

Query: For this molecule, is Ki lower than 200 nM? C[C@@H](O)[C@H](NC(=O)c1cc(C(C)(C)C)nn1C)C(=O)NC1(C#N)CC1 [Compound 19]
Result: not fulfilled

Query: Is the reported Ki for N#CC1(NC(=O)[C@H](Cc2ccccc2)NC(=O)c2ccccc2)CC1 [Compound 6] strictly below 200 nM?
Result: fulfilled

Query: Please check: Ki for CC(C)C[C@H](NC(=O)c1cc(C(C)(C)C)nn1C)C(=O)N[C@H](C#N)[C@@H](C)OCc1ccccc1 [Compound 58] , strictly under 200 nM or not?
Result: fulfilled

Query: Hello, I'm reviewing records and need to know if Ki of Cn1nc(C(C)(C)C)cc1C(=O)N[C@@H](Cc1ccccc1)C(=O)N[C@H](C#N)Cc1ccncc1 [Compound 55] is below 200 nM. Could you check?
Result: fulfilled

Query: Strictly below 200 nM in Ki? Cn1nc(C(C)(C)C)cc1C(=O)N[C@@H](Cc1ccccc1)C(=O)N[C@H](C#N)Cc1cccc(Cl)c1 [Compound 54]
Result: fulfilled

Query: # strict comparison: is reported Ki < 200 nM? input = C[C@@H](OCc1ccccc1)[C@@H](C#N)NC(=O)[C@H](Cc1ccccc1)NC(=O)c1cc(C(C)(C)C)nn1C [Compound 56]
Result: not fulfilled
